The origin of these recorded values is patent US8829011B2.

Item-by-item account of pKi
# subject of test: human recombinant 5-HT6 receptor (Homo sapiens)
# protocol summary: Affinity for 5-HT6 receptor binding sites (competitive radioligand binding, [3H]LSD)
# measurement conditions: membranes of HEK-293 with h5-HT6, * = tested as hydrochloride salt
pKi: −log10 of the molar value. Where a name gives a salt, the structure may show the parent alone.

compound | pKi
CCN(CC)c1nc2c(c(-c3ccc(C)cc3)n1)CCCNC2 | 6.52
Cc1ccc(-c2nc(N3CCCCC3C)nc3c2CCCNC3)cc1 (stereo not shown) | 7.17
Cc1ccc(-c2nc(N3CCOC[C@@H]3C)nc3c2CCNCC3)cc1Cl | 8.05
Cc1ccc(-c2nc(N3CCCCC3)nc3c2CCNCC3)cc1Cl | 7.07
Cc1ccc(-c2nc(N3CCCCC3)nc3c2CNCC3)cc1 | 6.11
Cc1ccc(-c2nc(N3CCCC3C)nc3c2CCNCC3)cc1 (stereo not shown) | 7.49
C[C@@H]1CCC[C@H](C)N1c1nc2c(c(-c3ccc(F)c(F)c3)n1)CCNCC2 | 7.08
CC(C)c1ccc(-c2nc(N3[C@H](C)CCC[C@@H]3C)nc3c2CCNCC3)cc1 | 7.39
Cc1ccc(-c2nc(N3CCS(=O)(=O)CC3)nc3c2CCNCC3)cc1Cl | 7.07
C[C@H]1COCCN1c1nc2c(c(-c3cnc4ccccc4c3)n1)CCNCC2 | 8.15
CCN(CC)c1nc2c(c(-c3ccc(C#N)cc3)n1)CCNCC2 [Example 14, hydrochloride] | 6.66
Cc1ccc(-c2nc(N3CCS(=O)(=O)CC3)nc3c2CCNCC3)cc1 | 7.54
FC1CCN(c2nc3c(c(-c4ccc(Cl)c(Cl)c4)n2)CCNCC3)CC1 | 7.02
CCN(CC)c1nc2c(c(-c3ccc(OC)cc3)n1)CCCNC2 | 6.80
Cc1ccc(-c2nc(N3CCOC[C@@H]3C)nc3c2CCNCC3)cc1 | 8.10
Cc1ccc(-c2nc(NCc3ccccc3)nc3c2CNCC3)cc1 | 6.04
C[C@@H]1CCC[C@H](C)N1c1nc2c(c(-c3ccc(OC(F)(F)F)cc3)n1)CCNCC2 | 7.06
Cc1ccc(-c2nc(N(C)C)nc3c2CNCC3)cc1 | 5.64
CC(C)N(c1nc2c(c(-c3ccc(F)cc3)n1)CNCC2)C(C)C [Example 43, hydrochloride] | 6.71
Cc1ccc(-c2nc(N3CCC(F)CC3)nc3c2CCNCC3)cc1 | 7.89
Fc1ccc(-c2nc(N3CCOCC3)nc3c2CNCC3)cc1 | 5.01
Clc1ccc(-c2nc(N3CCOCC3)nc3c2CCNCC3)cc1 | 6.99
C[C@@H]1COCCN1c1nc2c(c(-c3cnc4ccccc4c3)n1)CCNCC2 | 7.52
CCN(CC)c1nc2c(c(-c3ccc(C#N)cc3)n1)CCNC2 | 5.43
CCN(CC)c1nc2c(c(-c3ccc(C)cc3)n1)CCNC2 | 6.50
Cc1ccc(-c2nc(N3CCCC3C)nc3c2CCNCC3)cc1Cl (stereo not shown) | 7.29
CC(C)c1ccc(-c2nc(N3CCS(=O)(=O)CC3)nc3c2CCNCC3)cc1 | 7.04
Cc1ccc(-c2nc(N3CCOC[C@@H]3C)nc3c2CCNCC3)cc1F | 7.64
Cc1ccc(-c2nc(N3[C@H](C)CCC[C@@H]3C)nc3c2CCNCC3)cc1Cl | 7.74
CCN(CC)c1nc2c(c(-c3ccncc3)n1)CCNCC2 [Example 10, hydrochloride] | 5.84
Cc1ccc(-c2nc(N3CCS(=O)(=O)CC3)nc3c2CCN(C)CC3)cc1 | 7.39
C[C@@H]1CCC[C@H](C)N1c1nc2c(c(-c3cnc4ccccc4c3)n1)CCNCC2 | 7.92
Cc1ccc(-c2nc(N3CCCCC3)nc3c2CCNCC3)cc1 | 7.85
C[C@H]1COCCN1c1nc2c(c(-c3ccc(Cl)cc3)n1)CCNCC2 | 7.89
COc1ccc(-c2nc(N3CCC(F)CC3)nc3c2CCNCC3)cc1 | 7.08
C[C@H]1COCCN1c1nc2c(c(-c3cc4ccccc4o3)n1)CCNCC2 | 7.89
CCN(CC)c1nc2c(c(-c3ccc(C#N)cc3)n1)CCCNC2 | 5.43

* * *

# subject of test: human recombinant 5-HT6 receptor (Homo sapiens)
# protocol summary: Affinity for 5-HT6 receptor binding sites (competitive radioligand binding, [3H]LSD)
# measurement conditions: membranes of HEK-293 with h5-HT6, * = tested as hydrochloride salt

smi | result units | Ki
Cc1ccc(-c2nc(N3CCOCC3)nc3c2CNCC3)cc1 | nM | 2090
CCN(CC)c1nc2c(c(-c3ccc(F)cc3)n1)CCCNC2 | nM | 2260
C[C@@H]1CCC[C@H](C)N1c1nc2c(c(-c3ccc(Cl)c(F)c3)n1)CCNCC2 | nM | 52
C[C@H]1COCCN1c1nc2c(c(-c3ccc(F)cc3)n1)CNCC2 | nM | 3390
Cc1ccc(-c2nc(N3[C@H](C)CCC[C@@H]3C)nc3c2CCNCC3)cc1 | nM | 19

* * *

# subject of test: human recombinant 5-HT6 receptor (Homo sapiens, UniProt P50406)
# Sequence (P50406 whole entry): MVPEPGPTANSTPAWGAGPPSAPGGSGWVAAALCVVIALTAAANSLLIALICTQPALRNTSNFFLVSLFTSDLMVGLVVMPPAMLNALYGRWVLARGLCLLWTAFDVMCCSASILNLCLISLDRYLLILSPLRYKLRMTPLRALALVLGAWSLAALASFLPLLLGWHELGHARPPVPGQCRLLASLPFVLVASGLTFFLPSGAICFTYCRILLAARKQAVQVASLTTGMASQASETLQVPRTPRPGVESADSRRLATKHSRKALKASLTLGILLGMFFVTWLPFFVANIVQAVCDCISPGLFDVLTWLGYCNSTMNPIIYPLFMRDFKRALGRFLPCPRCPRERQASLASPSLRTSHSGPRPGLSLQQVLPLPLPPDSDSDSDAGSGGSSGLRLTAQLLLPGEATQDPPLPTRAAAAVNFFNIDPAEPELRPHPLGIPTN
# protocol summary: Affinity for 5-HT6 receptor binding sites (competitive radioligand binding, [3H]LSD)
# measurement conditions: membranes of HEK-293 with h5-HT6, * = tested as hydrochloride salt
# Procedure: Stock drug solutions (10 mM) were prepared in DMSO (the final assay concentration of DMSO not exceeding 0.4%). Drug dilutions were prepared in assay buffer. Sigmoidal inhibition curves were generated and fitted by nonlinear regression analysis (GraphPad Prism). 3. […] Receptor binding was performed using the human recombinant 5-HT6 (GB: BC0794995) receptor. The affinity of the compounds for the human 5-HT6 receptor was evaluated by competitive radioligand binding assays using [^3H]LSD. […]
Where a name gives a salt, the structure may show the parent alone.
measure: log10(Ki) (log10 of the value in µM)

compound | log10(Ki)
COc1ccc(-c2nc(N3CCCC3C)nc3c2CCNCC3)cc1 (stereo not drawn) | -1.41
CCN(CC)c1nc2c(c(-c3ccc(F)cc3)n1)CCNC2 | -0.03
COc1ccc(-c2nc(N3CCCC3C)nc3c2CCNCC3)cc1Cl (stereo not drawn) | -1.33
CCN(CC)c1nc2c(c(-c3ccc(F)cc3)n1)CCNCC2 [Example 9, hydrochloride] | -1.08
CC1CCCCN1c1nc2c(c(-c3ccc(C#N)cc3)n1)CCCNC2 (stereo not drawn) | 0.09
CCN(CC)c1nc2c(c(-c3ccc(OC)cc3)n1)CCNCC2 [Example 13, hydrochloride] | -1.55
FC1CCN(c2nc3c(c(-c4ccc(Cl)cc4)n2)CCNCC3)CC1 | -1.54
Clc1ccc(-c2nc(N3CCCCC3)nc3c2CCNCC3)cc1 | -1.34
Clc1ccc(-c2nc(N3CCOCC3)nc3c2CNCCC3)cc1 | 0.36

* * *

pKi: −log10 of the molar value. Where a name gives a salt, the structure may show the parent alone.
Consider the following pKi values measured on rat 5-HT7a receptor (Rattus norvegicus, UniProt P32305).
Sequence (P32305 whole entry): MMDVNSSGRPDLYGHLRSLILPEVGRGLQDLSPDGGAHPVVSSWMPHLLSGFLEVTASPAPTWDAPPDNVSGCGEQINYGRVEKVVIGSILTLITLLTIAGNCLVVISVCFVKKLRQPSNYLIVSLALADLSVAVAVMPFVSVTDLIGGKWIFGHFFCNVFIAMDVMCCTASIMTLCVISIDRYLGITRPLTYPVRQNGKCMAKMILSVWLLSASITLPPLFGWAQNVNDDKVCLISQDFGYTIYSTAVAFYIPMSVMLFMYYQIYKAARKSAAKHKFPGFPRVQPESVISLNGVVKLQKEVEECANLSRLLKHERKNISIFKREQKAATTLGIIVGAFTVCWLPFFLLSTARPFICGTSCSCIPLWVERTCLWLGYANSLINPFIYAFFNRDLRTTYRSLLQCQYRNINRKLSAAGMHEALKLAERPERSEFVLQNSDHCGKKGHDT
measure: pKi

compound | subject of test | censoring qualifier | reported measurement
Fc1ccc(-c2nc(N3CCCCCC3)nc3c2CCNC3)cc1 | rat 5-HT7a receptor (Rattus norvegicus, UniProt P32305) | = | 6.57
CCN(CC)c1nc2c(c(-c3ccncc3)n1)CCNCC2 [Example 10, hydrochloride] | rat 5-HT7a receptor (Rattus norvegicus, UniProt P32305) | = | 5.92
CCN(CC)c1nc2c(c(-c3ccc(OC)cc3)n1)CCNCC2 [Example 13, hydrochloride] | rat 5-HT7a receptor (Rattus norvegicus, UniProt P32305) | = | 7.49
Fc1ccc(-c2nc(N3CCCCC3)nc3c2CNCCC3)cc1 [Example 20, hydrochloride] | rat 5-HT7a receptor (Rattus norvegicus, UniProt P32305) | < | 5.00
Cc1ccc(-c2nc(N3CCCCC3C)nc3c2CCCNC3)cc1 (centres unmarked) | rat 5-HT7a receptor (Rattus norvegicus, UniProt P32305) | = | 6.30
Cc1ccc(-c2nc(N3CCCCC3)nc3c2CNCC3)cc1 | rat 5-HT7a receptor (Rattus norvegicus, UniProt P32305) | = | 6.46
CCN(CC)c1nc2c(c(-c3ccc(OC)cc3)n1)CCCNC2 | rat 5-HT7a receptor (Rattus norvegicus, UniProt P32305) | = | 6.62
Cc1ccc(-c2nc(N3CCCC3)nc3c2CN(C)CC3)cc1 | rat 5-HT7a receptor (Rattus norvegicus, UniProt P32305) | < | 5.00
CCNc1nc2c(c(-c3ccc(C)cc3)n1)CNCC2 | rat 5-HT7a receptor (Rattus norvegicus, UniProt P32305) | < | 5.00
Fc1ccc(-c2nc(N3CCOCC3)nc3c2CNCC3)cc1 | rat 5-HT7a receptor (Rattus norvegicus, UniProt P32305) | < | 5.00
Cc1ccc(-c2nc(NCc3ccccc3)nc3c2CNCC3)cc1 | rat 5-HT7a receptor (Rattus norvegicus, UniProt P32305) | = | 6.49
CCN(CC)c1nc2c(c(-c3ccc(Cl)cc3)n1)CNCCC2 [Example 59, hydrochloride] | rat 5-HT7a receptor (Rattus norvegicus, UniProt P32305) | < | 5.00
CC1CCCCN1c1nc2c(c(-c3ccc(C#N)cc3)n1)CCCNC2 (centres unmarked) | rat 5-HT7a receptor (Rattus norvegicus, UniProt P32305) | < | 5.00
Cc1ccc(-c2nc(N3CCCCC3)nc3c2CNCCC3)cc1 | rat 5-HT7a receptor (Rattus norvegicus, UniProt P32305) | < | 5.00
CCN(CC)c1nc2c(c(-c3ccsc3)n1)CCNCC2 [Example 12, hydrochloride] | rat 5-HT7a receptor (Rattus norvegicus, UniProt P32305) | = | 7.40
CC1CCCN1c1nc2c(c(-c3ccc(F)cc3)n1)CNCC2 (centres unmarked) [Example 38, hydrochloride] | rat 5-HT7a receptor (Rattus norvegicus, UniProt P32305) | < | 5.00
Cc1ccc(-c2nc(N(C)C)nc3c2CNCC3)cc1 | rat 5-HT7a receptor (Rattus norvegicus, UniProt P32305) | = | 5.05
COc1ccc(-c2nc(N3CCCCCC3)nc3c2CCNC3)cc1 | rat 5-HT7a receptor (Rattus norvegicus, UniProt P32305) | = | 6.68
CCN(CC)c1nc2c(c(-c3ccc(C)cc3)n1)CCN(Cc1ccccc1)C2 | rat 5-HT7a receptor (Rattus norvegicus, UniProt P32305) | < | 5.00
CC1CCCN1c1nc2c(c(-c3ccc(Cl)cc3)n1)CCNCC2 (centres unmarked) | rat 5-HT7a receptor (Rattus norvegicus, UniProt P32305) | = | 6.43
CCN(CC)c1nc2c(c(-c3ccc(C#N)cc3)n1)CCNCC2 [Example 14, hydrochloride] | rat 5-HT7a receptor (Rattus norvegicus, UniProt P32305) | = | 7.20
CCN(CC)c1nc2c(c(-c3ccc(C#N)cc3)n1)CNCCC2 | rat 5-HT7a receptor (Rattus norvegicus, UniProt P32305) | < | 5.00
CCN(CC)c1nc2c(c(-c3ccc(OC)cc3)n1)CCN(Cc1ccccc1)C2 | rat 5-HT7a receptor (Rattus norvegicus, UniProt P32305) | < | 5.00
Cc1ccc(-c2nc(N3CCCC3)nc3c2CNCC3)cc1 | rat 5-HT7a receptor (Rattus norvegicus, UniProt P32305) | < | 5.00
N#Cc1ccc(-c2nc(N3CCCCC3)nc3c2CNCCC3)cc1 [Example 22, hydrochloride] | rat 5-HT7a receptor (Rattus norvegicus, UniProt P32305) | < | 5.00
CC(C)N(c1nc2c(c(-c3ccc(F)cc3)n1)CNCC2)C(C)C [Example 43, hydrochloride] | rat 5-HT7a receptor (Rattus norvegicus, UniProt P32305) | = | 6.49
CCN(CC)c1nc2c(c(-c3ccc(C)cc3)n1)CNCCC2 | rat 5-HT7a receptor (Rattus norvegicus, UniProt P32305) | = | 6.30
CCN(CC)c1nc2c(c(-c3ccc(C)cc3)n1)CCNCC2 [Example 11, hydrochloride] | rat 5-HT7a receptor (Rattus norvegicus, UniProt P32305) | = | 7.40
Fc1ccc(-c2nc(N3CCCCCC3)nc3c2CCN(Cc2ccccc2)C3)cc1 | rat 5-HT7a receptor (Rattus norvegicus, UniProt P32305) | < | 5.00
CCN(CC)c1nc2c(c(-c3ccc(C#N)cc3)n1)CCNC2 | rat 5-HT7a receptor (Rattus norvegicus, UniProt P32305) | = | 6.52
CCN(CC)c1nc2c(c(-c3ccc(OC)cc3)n1)CCNC2 | rat 5-HT7a receptor (Rattus norvegicus, UniProt P32305) | = | 6.89
CCN(CC)c1nc2c(c(-c3ccc(F)cc3)n1)CCN(Cc1ccccc1)C2 | rat 5-HT7a receptor (Rattus norvegicus, UniProt P32305) | = | 6.21
CCN(CC)c1nc2c(c(-c3ccc(C#N)cc3)n1)CCN(Cc1ccccc1)C2 | rat 5-HT7a receptor (Rattus norvegicus, UniProt P32305) | < | 5.00
COc1ccc(-c2nc(N3CCCCCC3)nc3c2CCN(Cc2ccccc2)C3)cc1 | rat 5-HT7a receptor (Rattus norvegicus, UniProt P32305) | < | 5.00
Cc1ccc(-c2nc(N3CCCCCC3)nc3c2CCNC3)cc1 | rat 5-HT7a receptor (Rattus norvegicus, UniProt P32305) | = | 7.05
Cc1ccc(-c2nc(N3CCCCCC3)nc3c2CCN(Cc2ccccc2)C3)cc1 | rat 5-HT7a receptor (Rattus norvegicus, UniProt P32305) | < | 5.00
CCN(CC)c1nc2c(c(-c3ccc(C)cc3)n1)CCCNC2 | rat 5-HT7a receptor (Rattus norvegicus, UniProt P32305) | = | 6.66
Fc1ccc(-c2nc(N3CCCC3)nc3c2CNCC3)cc1 [Example 41, hydrochloride] | rat 5-HT7a receptor (Rattus norvegicus, UniProt P32305) | < | 5.00
